System: SK-OV-3 ovarian
Experiment: NCI-60 one-dose screen, 48 h (100 = growth as untreated, 0 = no growth, -100 = all killed)
Settings: 10 µM unless noted
Experimental: Growth inhibition of the SK-OV-3 human tumor cell line is measured as a screen for anti-cancer activity. Cells are grown in 96 well plates and exposed to the test compound for 48 hours. Compounds are tested at a single concentration, which is 10^-5 M for most compounds. The reported endpoint is percent growth (GI% or GIPRCNT), where numbers from 0 - 100% represent growth inhibition, and numbers from -100% - 0 represent cell death. For example, a value of 40 represents 60% growth inhibition. […]
The panel holds about 83,000 compounds, 20% with a hit somewhere; the sample as a whole holds those more often.

- compound: "COc1ccc(C2CCCCC2=O)cc1 (stereo not drawn)"
  growth [%]: 103
- compound: "C=CCNC(=S)N/C=C(/C(=O)c1ccccc1)c1ccccc1"
  growth [%]: 110
- compound: "O=C(c1ccc(Cl)cc1)N1CCCCC1"
  growth [%]: 105
- compound: "CCOC(=O)C(COS(C)(=O)=O)(COS(C)(=O)=O)C(=O)OCC"
  growth [%]: 104
- compound: "COc1cc2c(c(OC)c1OC)-c1ccc(SC)c(=O)cc1[C@@H](NC1OC(CO)C(O)C(O)C1O)CC2 (stereo partly drawn)"
  growth [%]: 1.33
- compound: "CCOC(=O)c1ccc(NC(C)=O)o1"
  growth [%]: 92.1
- compound: "CC(=O)c1ccc(C)cc1"
  growth [%]: 121
- compound: "CC(=O)NCNC(C)=O"
  growth [%]: 113
- compound: "CCCC1OC(c2ccco2)OCC1CC (stereo not drawn)"
  growth [%]: 113
- compound: "O=S(Cc1ccccc1)/C(=C/NC(=S)Nc1ccccc1)c1ccccc1 (stereo not drawn)"
  growth [%]: 91.4
- compound: "O=C(O)CCCCCNC(=O)OCc1ccccc1"
  growth [%]: 106
- compound: "Nc1ccc2ccccc2c1-c1c(N)ccc2ccccc12"
  growth [%]: 30.8
- compound: "CCOC(=O)N[C@H]1CCc2cc(OC)c(OC)c(OC)c2-c2ccc(SC)c(=O)cc21"
  growth [%]: 28.7

---

Tested on: RPMI-8226 leukemia
Experiment: NCI-60 one-dose screen, 48 h
Settings: 10 µM unless noted
Compounds without any hit were thinned out: in the full panel of roughly 83,000, 20% have a hit. The source made the active and inactive calls. Rule for the calls: active = growth percent below 10; inactive = the rest.
Labels: 1 for active, 0 for inactive

- compound: "Cc1ccnc(Nc2nc3ccccc3[nH]2)n1"
  assayTarget: "RPMI-8226 leukemia"
  assignedCategory: 0
- compound: "Nc1c(O)c(S(=O)(=O)O)c(O)c2c1C(=O)c1ccccc1C2=O"
  assayTarget: "RPMI-8226 leukemia"
  assignedCategory: 0
- compound: "C=CCC(OC(C)=O)c1ccc(OC)c(OC)c1 (stereo not drawn)"
  assayTarget: "RPMI-8226 leukemia"
  assignedCategory: 0
- compound: "O=C(Nc1cccc(Cl)c1)c1ccc(Cl)cc1Cl"
  assayTarget: "RPMI-8226 leukemia"
  assignedCategory: 0
- compound: "CCC(/C=C\\C(C)=O)CC"
  assayTarget: "RPMI-8226 leukemia"
  assignedCategory: 0
- compound: "N#C/C(=C\\NC(=S)N=Nc1c(O)[nH]c2ccccc12)c1nc2ccccc2s1"
  assayTarget: "RPMI-8226 leukemia"
  assignedCategory: 0
- compound: "NC(CO)(CO)c1ccccc1"
  assayTarget: "RPMI-8226 leukemia"
  assignedCategory: 0
- compound: "O=S(=O)(O)c1cccc2cccnc12"
  assayTarget: "RPMI-8226 leukemia"
  assignedCategory: 0
- compound: "O=S(Cc1ccccc1)/C(=C/NC(=S)Nc1ccccc1)c1ccccc1 (stereo not drawn)"
  assayTarget: "RPMI-8226 leukemia"
  assignedCategory: 0
- compound: "Cc1cc(C(=O)c2ccccc2)cc(C)c1O"
  assayTarget: "RPMI-8226 leukemia"
  assignedCategory: 0
- compound: "CC1(C)OC2C(CO)OC(n3ccc(=O)[nH]c3=O)C2O1 (stereo not drawn)"
  assayTarget: "RPMI-8226 leukemia"
  assignedCategory: 0
- compound: "c1ccc2c(NCCCN3CCN(CCCNc4c5ccccc5nc5ccccc45)CC3)c3ccccc3nc2c1"
  assayTarget: "RPMI-8226 leukemia"
  assignedCategory: 1
- compound: "O=C(O)Cc1ccc(Cl)cc1"
  assayTarget: "RPMI-8226 leukemia"
  assignedCategory: 0
